Target: Fuc(a1-2)Gal(b1-3)GlcNAc(b1-3)GalNAc
Assay: glycan array binding signal (z-score within array); higher = stronger binding
Settings: glycan notation: IUPAC condensed, linker removed
The sample as a whole holds a higher share of the strongest signals than the screen did.
endpoint.label: glycan array binding signal (z-score)

INSERT INTO assay_data (binder, endpoint_label, readout_value) VALUES
  ('CML1 (Coprinopsis cinerea) (protein) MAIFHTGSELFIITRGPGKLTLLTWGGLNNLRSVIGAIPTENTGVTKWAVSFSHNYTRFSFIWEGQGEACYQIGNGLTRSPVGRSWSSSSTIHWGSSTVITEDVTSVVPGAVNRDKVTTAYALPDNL', 'glycan array binding signal (z-score)', 3.31),
  ('Intelectin 1 (Homo sapiens), Q8WWA0 (protein) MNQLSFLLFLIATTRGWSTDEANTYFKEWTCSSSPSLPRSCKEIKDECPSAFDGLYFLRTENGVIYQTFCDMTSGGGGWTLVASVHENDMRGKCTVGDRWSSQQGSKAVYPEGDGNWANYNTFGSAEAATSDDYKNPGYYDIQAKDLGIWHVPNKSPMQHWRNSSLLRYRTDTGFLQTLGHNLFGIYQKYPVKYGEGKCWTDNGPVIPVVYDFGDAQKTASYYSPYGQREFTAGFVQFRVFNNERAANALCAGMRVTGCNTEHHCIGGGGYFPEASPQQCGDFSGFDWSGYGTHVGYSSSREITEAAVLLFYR', 'glycan array binding signal (z-score)', 0.22),
  ('Calsepa (Calystegia sepium), P93114 (protein) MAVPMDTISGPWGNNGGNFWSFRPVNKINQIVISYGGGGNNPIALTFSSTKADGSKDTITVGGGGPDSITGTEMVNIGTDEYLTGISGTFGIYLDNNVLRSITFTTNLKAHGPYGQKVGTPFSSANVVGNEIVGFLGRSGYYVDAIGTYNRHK', 'glycan array binding signal (z-score)', -0.268);
